Assay: physchem
Assay type: physicochemical
Conditions: methylcellosolve:water 4:1, pKMCS
Structures can show the parent of a compound that is named as a salt.
pKa: recorded values
Response field accepts a number only; no unit should be typed.

• COC(=O)C1NC(=O)C2NC(=O)C(NC(=O)C3NC(=O)C4NC(=O)C(Cc5ccc(c(Cl)c5)Oc5cc3cc(c5OC(CCO)C(=O)O)Oc3ccc(cc3Cl)C2O)NC(=O)C(N)c2ccc(O)c(c2)Oc2cc(O)cc4c2)c2ccc(O)c(c2)-c2c(O)cc(O)cc21 (centres unmarked) [Compound 3, hydrochloride] = 6

// switching to the query compound
Exam item: Give the measured pKa for COC(=O)C1NC(=O)C2NC(=O)C(NC(=O)C3NC(=O)C4NC(=O)C(Cc5ccc(c(Cl)c5)Oc5cc3cc(c5OCCN3CCCC3)Oc3ccc(cc3Cl)C2O)NC(=O)C(N)c2ccc(O)c(c2)Oc2cc(O)cc4c2)c2ccc(O)c(c2)-c2c(O)cc(O)cc21 (centres unmarked) [Compound 13, dihydrochloride]
Marked response: 6.4
